# target-of-assay: human acetyl-CoA carboxylase 2 (ACC2) (Homo sapiens, UniProt O00763)
# Construct: The cDNA encoding amino acids 144 to 2458 of human acetyl-CoA carboxylase 2; made in house; host or cells: Sf9 insect cells (baculovirus, pFastBac1)
# Sequence (O00763 144-2458): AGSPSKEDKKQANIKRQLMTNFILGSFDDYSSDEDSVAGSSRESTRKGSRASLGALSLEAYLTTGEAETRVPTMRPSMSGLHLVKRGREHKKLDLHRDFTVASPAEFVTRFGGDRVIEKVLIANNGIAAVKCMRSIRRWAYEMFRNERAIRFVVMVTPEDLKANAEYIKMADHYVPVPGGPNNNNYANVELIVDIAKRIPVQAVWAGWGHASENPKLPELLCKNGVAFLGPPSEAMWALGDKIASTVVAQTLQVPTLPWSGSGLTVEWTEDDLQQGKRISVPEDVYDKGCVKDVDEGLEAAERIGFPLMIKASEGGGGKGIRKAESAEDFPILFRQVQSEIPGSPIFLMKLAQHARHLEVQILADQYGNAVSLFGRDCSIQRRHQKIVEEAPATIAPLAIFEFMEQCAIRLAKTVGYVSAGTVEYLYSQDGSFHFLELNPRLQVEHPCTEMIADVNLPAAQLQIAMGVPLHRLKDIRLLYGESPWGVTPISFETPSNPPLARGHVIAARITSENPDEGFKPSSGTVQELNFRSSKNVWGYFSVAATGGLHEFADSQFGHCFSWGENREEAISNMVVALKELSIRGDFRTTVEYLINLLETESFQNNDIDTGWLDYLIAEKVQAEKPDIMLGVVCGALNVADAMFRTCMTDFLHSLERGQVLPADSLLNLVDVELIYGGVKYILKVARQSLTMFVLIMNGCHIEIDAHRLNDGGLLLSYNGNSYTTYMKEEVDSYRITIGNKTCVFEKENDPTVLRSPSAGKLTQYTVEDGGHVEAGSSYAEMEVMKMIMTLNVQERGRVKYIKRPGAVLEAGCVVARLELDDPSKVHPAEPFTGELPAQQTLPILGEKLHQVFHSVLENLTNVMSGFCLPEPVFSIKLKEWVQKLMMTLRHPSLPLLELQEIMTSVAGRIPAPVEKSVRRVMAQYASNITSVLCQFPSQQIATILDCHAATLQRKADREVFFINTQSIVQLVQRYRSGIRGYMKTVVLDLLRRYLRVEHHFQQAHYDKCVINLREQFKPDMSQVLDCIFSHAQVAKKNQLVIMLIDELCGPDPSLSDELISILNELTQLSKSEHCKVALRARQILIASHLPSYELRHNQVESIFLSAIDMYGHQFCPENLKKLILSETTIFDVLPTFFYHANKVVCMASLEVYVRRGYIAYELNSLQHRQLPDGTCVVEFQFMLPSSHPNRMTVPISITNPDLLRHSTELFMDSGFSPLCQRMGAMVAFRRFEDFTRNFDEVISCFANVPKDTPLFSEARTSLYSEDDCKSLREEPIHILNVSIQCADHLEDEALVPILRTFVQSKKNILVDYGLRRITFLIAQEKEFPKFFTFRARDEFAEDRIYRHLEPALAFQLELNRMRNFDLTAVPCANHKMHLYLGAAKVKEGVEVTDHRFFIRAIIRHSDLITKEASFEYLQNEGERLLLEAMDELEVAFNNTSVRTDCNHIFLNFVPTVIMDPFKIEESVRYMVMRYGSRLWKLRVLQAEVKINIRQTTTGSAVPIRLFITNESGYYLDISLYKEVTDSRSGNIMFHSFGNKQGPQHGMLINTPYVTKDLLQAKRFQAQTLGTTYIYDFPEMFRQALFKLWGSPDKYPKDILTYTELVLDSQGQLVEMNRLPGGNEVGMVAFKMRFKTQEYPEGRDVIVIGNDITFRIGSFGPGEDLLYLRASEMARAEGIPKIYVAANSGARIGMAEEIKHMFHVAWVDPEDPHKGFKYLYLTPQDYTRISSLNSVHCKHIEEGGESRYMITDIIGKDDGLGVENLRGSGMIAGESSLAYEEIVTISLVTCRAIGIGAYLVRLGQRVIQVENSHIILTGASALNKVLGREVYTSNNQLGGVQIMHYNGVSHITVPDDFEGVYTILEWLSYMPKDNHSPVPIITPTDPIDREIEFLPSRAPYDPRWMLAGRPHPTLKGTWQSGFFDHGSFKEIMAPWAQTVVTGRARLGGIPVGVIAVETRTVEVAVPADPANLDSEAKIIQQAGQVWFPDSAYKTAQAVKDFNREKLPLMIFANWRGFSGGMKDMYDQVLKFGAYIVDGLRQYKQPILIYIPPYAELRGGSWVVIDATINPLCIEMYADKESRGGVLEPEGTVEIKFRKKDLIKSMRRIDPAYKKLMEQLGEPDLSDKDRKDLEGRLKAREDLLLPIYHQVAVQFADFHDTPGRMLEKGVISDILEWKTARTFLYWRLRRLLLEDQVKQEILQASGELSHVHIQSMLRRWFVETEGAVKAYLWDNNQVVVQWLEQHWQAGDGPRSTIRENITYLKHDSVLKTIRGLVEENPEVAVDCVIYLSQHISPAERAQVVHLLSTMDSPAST
# method: Acetyl-CoA carboxylase enzyme assay (malonyl-CoA formation by LC/MS/MS)
# Type: biochemical
# condition-summary: recombinant human ACC2 (aa 144-2458); read-out: IC50 ACC2
property-measured: IC50 (nM)
# output: bare number, implied unit nM

Some compounds with known IC50 results, for comparison:
CC(C)OC(=O)c1ccc(NS(=O)(=O)c2ccc3nc(-c4ccc(C(C)C)cc4)[nH]c3c2)cc1
1950
COc1ccc(-c2cc3ccc(S(=O)(=O)N[C@H]4CC[C@H](C(=O)N[C@H](C)c5ccc(F)cc5)CC4)cc3[nH]2)c(C)c1
17
O=C([C@H]1CC[C@H](NS(=O)(=O)c2ccc3[nH]c(-c4ccccc4)nc3c2)CC1)N1CCc2ccccc2C1
370

Fill in the recorded IC50 for this compound, with human acetyl-CoA carboxylase 2 (ACC2) (Homo sapiens, UniProt O00763) as test system: Cn1ccc2cc(S(=O)(=O)N[C@H]3CC[C@H](C(=O)N[C@H](CO)c4ccccc4)CC3)ccc21
66

Input O=C(Nc1cc(F)cc(F)c1)[C@H]1CC[C@H](NS(=O)(=O)c2ccc3[nH]c(-c4ccccc4)nc3c2)CC1
1340

Input C[C@@H](NC(=O)[C@H]1CC[C@H](NS(=O)(=O)c2ccc3oc4ccccc4c3c2)CC1)c1ccc(F)cc1
15

Input COc1ccc(Nc2nc3cc(S(=O)(=O)Nc4ccc(C(=O)OC(C)C)cc4)ccc3[nH]2)cc1OC
248

Input O=C([C@H]1CC[C@H](NS(=O)(=O)c2ccc3cc(-c4ccc(F)cc4)[nH]c3c2)CC1)N1CCNC(C(F)(F)F)C1 (some centres unmarked)
45

Input Cc1ccccc1-c1cc2ccc(S(=O)(=O)N[C@H]3CC[C@H](C(=O)N4CCOC[C@@H]4C)CC3)cc2[nH]1
90

Input CC1CCc2ccc(S(=O)(=O)N[C@H]3CC[C@H](C(=O)N[C@H](C)c4ccc(F)cc4)CC3)cc2N1 (some centres unmarked)
40

Input O=C([C@H]1CC[C@H](NS(=O)(=O)c2ccc3[nH]c(-c4ccccc4)nc3c2)CC1)N1CCC2CCCCC2C1 (some centres unmarked)
246

Input C[C@@H](NC(=O)[C@H]1CC[C@H](NS(=O)(=O)c2ccc3nc(-c4ccccc4)cn3c2)CC1)c1ccc(F)cc1
115

Input O=C(NCc1cc(F)cc(F)c1)[C@H]1CC[C@H](NS(=O)(=O)c2ccc3[nH]c(-c4ccccc4)nc3c2)CC1
588

Input COc1cc(Nc2nc3cc(S(=O)(=O)Nc4ccc(C(=O)OC(C)C)cc4)ccc3[nH]2)cc(OC)c1OC
280

====

# target-of-assay: human acetyl-CoA carboxylase 2 (ACC2) (Homo sapiens)
# Construct: The cDNA encoding amino acids 144 to 2458 of human acetyl-CoA carboxylase 2; made in house; host or cells: Sf9 insect cells (baculovirus, pFastBac1)
# method: Acetyl-CoA carboxylase enzyme assay (malonyl-CoA formation by LC/MS/MS)
# Type: biochemical
# condition-summary: recombinant human ACC2 (aa 144-2458); read-out: IC50 ACC2
IC50 less than 100 nM is Fulfilled; IC50 greater than or equal to 100 nM is Not fulfilled.

Example entries and their recorded answers appear below.
C[C@@H](NC(=O)[C@H]1CC[C@H](NS(=O)(=O)c2ccc3cc(-c4ccccc4)[nH]c3c2)CC1)c1ccccc1
Fulfilled
Cn1c(C2CC2)cc2ccc(S(=O)(=O)N[C@H]3CC[C@H](C(=O)N[C@@H](c4ccccc4)C(C)(C)C(=O)O)CC3)cc21
Fulfilled
O=C(NCC1CC1)[C@H]1CC[C@H](NS(=O)(=O)c2ccc3[nH]c(-c4ccccc4)nc3c2)CC1
Not fulfilled

Please let me know if C[C@@H](NC(=O)[C@H]1CC[C@H](NS(=O)(=O)c2ccc3c(c2)NCCC3)CC1)c1ccc(F)cc1 shows IC50 below 100 nM.
Fulfilled

Input Cc1nc2cc(S(=O)(=O)N[C@H]3CC[C@H](c4nnc(C(C)(C)C)o4)CC3)ccc2n1Cc1ccccc1
Not fulfilled

Input C[C@@H](NC(=O)C12CC3CC(C1)C(NS(=O)(=O)c1cnc4c(c1)NCCN4)C(C3)C2)c1ccc(F)cc1 (some centres unmarked)
Fulfilled

Input CN1CCN(c2ccc3cc(S(=O)(=O)NC4CCC(C(=O)N5CCNCC5c5ccccc5)CC4)ccc3n2)CC1 (centres unmarked)
Not fulfilled

Input CCOc1ccc2cc(S(=O)(=O)N[C@H]3CC[C@H](C(=O)N4CCNC[C@@H]4c4ccccc4)CC3)ccc2n1
Fulfilled

Input CC(C)OC(=O)c1ccc(NS(=O)(=O)c2ccc3[nH]c(-c4ccc(CN(C)C)cc4)nc3c2)cc1
Not fulfilled

Input C[C@@H](OC(=O)C1(C)CCC(NS(=O)(=O)c2ccc3c(ccn3C)c2)CC1)c1ccccc1 (some centres unmarked)
Fulfilled

Input CC(C)OC(=O)c1ccc(NS(=O)(=O)c2ccc3[nH]c(Nc4ccc(Cl)c(S(N)(=O)=O)c4)nc3c2)cc1
Fulfilled

Input Cn1c(C2CC2)c(C#N)c2ccc(S(=O)(=O)N[C@H]3CC[C@H](C(=O)N4CCN[C@@H](C(F)(F)F)C4)CC3)cc21
Fulfilled

Input COc1ccccc1-c1nc2ccc(S(=O)(=O)Nc3ccc(C(=O)OC(C)C)cc3)cc2[nH]1
Not fulfilled

====

# target-of-assay: human acetyl-CoA carboxylase 2 (ACC2) (Homo sapiens)
# Construct: The cDNA encoding amino acids 144 to 2458 of human acetyl-CoA carboxylase 2; made in house; host or cells: Sf9 insect cells (baculovirus, pFastBac1)
# method: Acetyl-CoA carboxylase enzyme assay (malonyl-CoA formation by LC/MS/MS)
# Assay type: biochemical
# condition-summary: recombinant human ACC2 (aa 144-2458); read-out: IC50 ACC2
property-measured: IC50 (nM)
# output: bare number, implied unit nM

CN1CCN(C)c2ncc(S(=O)(=O)N[C@H]3CC[C@H](C(=O)N4CCN(C(=O)OCc5ccccc5)CC4c4ccccc4)CC3)cc21 (stereo partly drawn)
138
CCOc1ccc2cc(S(=O)(=O)N[C@H]3CC[C@H](C(=O)N[C@H](COC(=O)[C@@H](NC)C(C)C)c4ccccc4)CC3)ccc2n1
175
CC(C)OC(=O)c1ccc(NS(=O)(=O)c2ccc3[nH]c(Nc4ccc([N+](=O)[O-])cc4)nc3c2)cc1
240
C[C@H]1COCCN1C(=O)[C@H]1CC[C@H](NS(=O)(=O)c2ccc3c(Cl)c(C4CC4)n(C)c3c2)CC1
55
CC(C)[C@H]1COCCN1C(=O)[C@H]1CC[C@H](NS(=O)(=O)c2ccc3cc(-c4ccccc4)n(C)c3c2)CC1
10

Switching to the query record.
Fill in: IC50 of Cn1c(-c2ccc(CCC(=O)O)cc2)cc2ccc(S(=O)(=O)N[C@H]3CC[C@H](C(=O)N4CCC[C@H]4C(C)(C)C)CC3)cc21 is ___
340

====

# target-of-assay: human acetyl-CoA carboxylase 2 (ACC2) (Homo sapiens)
# Construct: The cDNA encoding amino acids 144 to 2458 of human acetyl-CoA carboxylase 2; made in house; host or cells: Sf9 insect cells (baculovirus, pFastBac1)
# method: Acetyl-CoA carboxylase enzyme assay (malonyl-CoA formation by LC/MS/MS)
# Type: biochemical
# condition-summary: recombinant human ACC2 (aa 144-2458); read-out: IC50 ACC2
IC50 less than 0.1 µM is fulfilled; IC50 greater than or equal to 0.1 µM is not fulfilled.

Please let me know if C[C@@H](NC(=O)[C@H]1CC[C@H](NS(=O)(=O)c2cnc3ccccc3c2)CC1)c1ccccc1 shows IC50 below 0.1 µM.
not fulfilled

Input COC(=O)C1CN(c2ccc3cc(S(=O)(=O)N[C@H]4CC[C@H](C(=O)N[C@H](C)c5ccc(F)cc5)CC4)ccc3n2)CCN1 (stereo partly shown)
not fulfilled

Input CC1COCCN1C(=O)[C@H]1CC[C@H](NS(=O)(=O)c2ccc3c(C#N)c(C4CC4)n(C)c3c2)CC1 (stereo partly shown)
fulfilled

Input C[C@@H](NC(=O)[C@H]1CC[C@H](NS(=O)(=O)c2ccc3nc(-c4ccccc4)oc3c2)CC1)c1ccc(F)cc1
fulfilled

Input O=C([C@H]1CC[C@H](NS(=O)(=O)c2cnc3c(c2)NCCN3)CC1)N1CCNC[C@@H]1c1ccccc1
not fulfilled

Input CNCc1ccc(-c2nc3cc(S(=O)(=O)Nc4ccc(C(=O)OC(C)C)cc4)ccc3[nH]2)cc1
not fulfilled

Input C[C@@H](NC(=O)[C@H]1CC[C@H](NS(=O)(=O)c2ccc3[nH]c(-c4ccccc4)nc3c2)CC1)c1ccc(F)cc1
fulfilled

====

A collection of compounds and their measured IC50
# target-of-assay: human acetyl-CoA carboxylase 2 (ACC2) (Homo sapiens, UniProt O00763)
# Construct: The cDNA encoding amino acids 144 to 2458 of human acetyl-CoA carboxylase 2; made in house; host or cells: Sf9 insect cells (baculovirus, pFastBac1)
# method: Acetyl-CoA carboxylase enzyme assay (malonyl-CoA formation by LC/MS/MS)
# Format: biochemical
# condition-summary: recombinant human ACC2 (aa 144-2458); read-out: IC50 ACC2
# Text: The cDNA encoding amino acids 144 to 2458 of human acetyl-CoA carboxylase 2 (ACC2, GenBank Accession #NM_001093) was cloned into the SalI and NotI sites of pFastBac1 (Invitrogen; Carlsbad, Calif.). The resulting plasmid was used to generate a recombinant ACC2 baculovirus that was amplified and titered according to the protocols in the Bac-to-Bac baculovirus expression system manual (Invitrogen). […]
# output: bare number, implied unit nM

Some compounds with known IC50 results, for comparison:
Cn1c(-c2ccccc2)cc2ccc(S(=O)(=O)N[C@H]3CC[C@H](C(=O)N4CCC[C@@H]4CO)CC3)cc21
95
C[C@@H](NC(=O)[C@H]1CC[C@H](NS(=O)(=O)c2ccc3cc(C4CC4)[nH]c3c2)CC1)c1ccc(F)cc1
28
C[C@@H]1CN(C(=O)[C@H]2CC[C@H](NS(=O)(=O)c3ccc4cc(-c5ccccc5)n(C)c4c3)CC2)C[C@H](C)O1
35
C[C@@H](NC(=O)[C@H]1CC[C@H](NS(=O)(=O)c2ccc3c(c2)N(C)[C@@H](C(=O)O)CC3)CC1)c1ccc(F)cc1
35

Fill in: IC50 of C[C@H]1COCCN1C(=O)[C@H]1CC[C@H](NS(=O)(=O)c2ccc3cc(C4CC4)n(C)c3c2)CC1 is ___
285

Input Cn1c(-c2ccccc2)cc2ccc(S(=O)(=O)N[C@H]3CC[C@H](C(=O)N4CCC[C@@H]4C(C)(C)O)CC3)cc21
30

Input CC(C)CC1CCc2cc(S(=O)(=O)N[C@H]3CC[C@H](C(=O)N[C@H](C)c4ccc(F)cc4)CC3)ccc2N1 (some centres unmarked)
205

Input Cn1c(-c2ccc(CCC(=O)O)cc2)cc2ccc(S(=O)(=O)N[C@H]3CC[C@H](C(=O)N4CCCCC4)CC3)cc21
95

Input C[C@@H](NC(=O)[C@H]1CC[C@H](NS(=O)(=O)c2ccc3cc(Cl)ccc3c2)CC1)c1cccnc1
180

Input C[C@@H](NC(=O)[C@H]1CC[C@H](NS(=O)(=O)c2ccc3c(ccn3C)c2)CC1)c1ccc(F)cc1
55

Input CC(C)OC(=O)c1ccc(NS(=O)(=O)c2ccc3nc(-c4ccc(O)cc4)[nH]c3c2)cc1
819

Input Cc1cccc(Nc2nc3cc(S(=O)(=O)Nc4ccc(C(=O)OC(C)C)cc4)ccc3[nH]2)c1
412

Input CC(C)OC(=O)c1ccc(NS(=O)(=O)c2ccc3[nH]c(Nc4ccc(F)cc4)nc3c2)cc1
320

Data credit: patent US8697739B2
